Measured CLint by item
system: Liver microsomes; test: Intrinsic clearance in rat liver microsomes assessed per ug of protein; format: ADME, Microsome
Response body: numeric value in µL/min/mg, unit text excluded.

query_smiles | value_units | CLint
O=C(N[C@@H]1COc2cccc(-c3cccnc3)c2C1)c1ccc(OCC(F)(F)F)nc1 | µL/min/mg | 64

Switching to the query record.
[ask] Note CLint for the molecule shown: O=C(N[C@@H]1COc2cccc(-c3ccncc3)c2C1)c1ccc(OCC(F)(F)F)nc1
[reply] 77

---

molecular target: Voltage-gated inwardly rectifying potassium channel KCNH2 (Homo sapiens, UniProt Q12809); experiment: Inhibition of human ERG expressed in CHO cells by IonWorks HT assay
Sequence (Q12809 whole entry): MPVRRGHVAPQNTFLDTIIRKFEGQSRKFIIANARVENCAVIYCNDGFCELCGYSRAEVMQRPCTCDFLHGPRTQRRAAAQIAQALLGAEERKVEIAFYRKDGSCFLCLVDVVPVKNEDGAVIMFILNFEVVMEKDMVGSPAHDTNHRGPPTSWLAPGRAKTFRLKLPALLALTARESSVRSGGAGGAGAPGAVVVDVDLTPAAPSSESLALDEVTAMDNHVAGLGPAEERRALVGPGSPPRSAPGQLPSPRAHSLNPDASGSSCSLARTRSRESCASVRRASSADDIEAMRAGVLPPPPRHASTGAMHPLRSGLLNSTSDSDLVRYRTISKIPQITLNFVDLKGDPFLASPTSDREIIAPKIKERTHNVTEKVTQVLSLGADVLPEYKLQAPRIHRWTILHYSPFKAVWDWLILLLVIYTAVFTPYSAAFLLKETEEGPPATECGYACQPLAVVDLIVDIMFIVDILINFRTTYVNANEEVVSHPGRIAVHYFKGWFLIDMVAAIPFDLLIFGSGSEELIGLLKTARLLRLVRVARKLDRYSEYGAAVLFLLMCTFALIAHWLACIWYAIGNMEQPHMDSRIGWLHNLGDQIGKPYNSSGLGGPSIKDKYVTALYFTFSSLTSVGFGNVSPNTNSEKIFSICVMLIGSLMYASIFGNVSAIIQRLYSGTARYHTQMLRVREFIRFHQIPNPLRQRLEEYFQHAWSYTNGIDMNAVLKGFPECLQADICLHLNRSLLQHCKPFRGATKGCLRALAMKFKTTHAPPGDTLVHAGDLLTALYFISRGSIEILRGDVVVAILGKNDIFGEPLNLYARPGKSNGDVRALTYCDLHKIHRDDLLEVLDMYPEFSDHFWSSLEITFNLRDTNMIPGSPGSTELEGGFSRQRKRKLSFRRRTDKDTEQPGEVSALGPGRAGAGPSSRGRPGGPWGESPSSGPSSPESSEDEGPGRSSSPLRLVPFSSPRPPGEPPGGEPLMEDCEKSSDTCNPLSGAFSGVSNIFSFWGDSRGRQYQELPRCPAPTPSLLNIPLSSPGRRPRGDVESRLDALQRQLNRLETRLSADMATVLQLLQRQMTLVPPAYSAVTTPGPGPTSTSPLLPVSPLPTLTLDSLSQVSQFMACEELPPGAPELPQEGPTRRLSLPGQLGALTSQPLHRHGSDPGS
// classify: if (IC50 < 8 µM) true else false

Examples with answers:
query_smiles | target_of_assay | discrete_label
COc1cnc(-c2cccc3c2C[C@H](NC(=O)c2ccc(COCC(F)(F)F)nc2)CO3)cn1 | Voltage-gated inwardly rectifying potassium channel KCNH2 (Homo sapiens, UniProt Q12809) | false
O=C(N[C@@H]1COc2cccc(-c3ccc(CO)nc3)c2C1)c1ccc(OCCOCC(F)(F)F)nc1 | Voltage-gated inwardly rectifying potassium channel KCNH2 (Homo sapiens, UniProt Q12809) | false
O=C(N[C@@H]1COc2cccc(-c3ccc(CO)nc3)c2C1)c1ccc(OCC(F)(F)F)nc1 | Voltage-gated inwardly rectifying potassium channel KCNH2 (Homo sapiens, UniProt Q12809) | false
O=C(N[C@@H]1COc2cccc(-c3ccncc3)c2C1)c1ccc(OC(F)(F)F)cc1 | Voltage-gated inwardly rectifying potassium channel KCNH2 (Homo sapiens, UniProt Q12809) | true

Let's switch to this molecule now.
[ask] Decide: IC50 of CN1CCN(c2cccc3c2C[C@H](NC(=O)c2ccc(OCCC(F)(F)F)nc2)CO3)CC1 strictly below 8 µM?
[reply] false

---

molecular target: Sodium channel protein type 5 subunit alpha (Homo sapiens, UniProt Q14524); assay: Inhibition of human NaV1.5 expressed in CHO cells by IonWorks assay
Sequence (Q14524 whole entry): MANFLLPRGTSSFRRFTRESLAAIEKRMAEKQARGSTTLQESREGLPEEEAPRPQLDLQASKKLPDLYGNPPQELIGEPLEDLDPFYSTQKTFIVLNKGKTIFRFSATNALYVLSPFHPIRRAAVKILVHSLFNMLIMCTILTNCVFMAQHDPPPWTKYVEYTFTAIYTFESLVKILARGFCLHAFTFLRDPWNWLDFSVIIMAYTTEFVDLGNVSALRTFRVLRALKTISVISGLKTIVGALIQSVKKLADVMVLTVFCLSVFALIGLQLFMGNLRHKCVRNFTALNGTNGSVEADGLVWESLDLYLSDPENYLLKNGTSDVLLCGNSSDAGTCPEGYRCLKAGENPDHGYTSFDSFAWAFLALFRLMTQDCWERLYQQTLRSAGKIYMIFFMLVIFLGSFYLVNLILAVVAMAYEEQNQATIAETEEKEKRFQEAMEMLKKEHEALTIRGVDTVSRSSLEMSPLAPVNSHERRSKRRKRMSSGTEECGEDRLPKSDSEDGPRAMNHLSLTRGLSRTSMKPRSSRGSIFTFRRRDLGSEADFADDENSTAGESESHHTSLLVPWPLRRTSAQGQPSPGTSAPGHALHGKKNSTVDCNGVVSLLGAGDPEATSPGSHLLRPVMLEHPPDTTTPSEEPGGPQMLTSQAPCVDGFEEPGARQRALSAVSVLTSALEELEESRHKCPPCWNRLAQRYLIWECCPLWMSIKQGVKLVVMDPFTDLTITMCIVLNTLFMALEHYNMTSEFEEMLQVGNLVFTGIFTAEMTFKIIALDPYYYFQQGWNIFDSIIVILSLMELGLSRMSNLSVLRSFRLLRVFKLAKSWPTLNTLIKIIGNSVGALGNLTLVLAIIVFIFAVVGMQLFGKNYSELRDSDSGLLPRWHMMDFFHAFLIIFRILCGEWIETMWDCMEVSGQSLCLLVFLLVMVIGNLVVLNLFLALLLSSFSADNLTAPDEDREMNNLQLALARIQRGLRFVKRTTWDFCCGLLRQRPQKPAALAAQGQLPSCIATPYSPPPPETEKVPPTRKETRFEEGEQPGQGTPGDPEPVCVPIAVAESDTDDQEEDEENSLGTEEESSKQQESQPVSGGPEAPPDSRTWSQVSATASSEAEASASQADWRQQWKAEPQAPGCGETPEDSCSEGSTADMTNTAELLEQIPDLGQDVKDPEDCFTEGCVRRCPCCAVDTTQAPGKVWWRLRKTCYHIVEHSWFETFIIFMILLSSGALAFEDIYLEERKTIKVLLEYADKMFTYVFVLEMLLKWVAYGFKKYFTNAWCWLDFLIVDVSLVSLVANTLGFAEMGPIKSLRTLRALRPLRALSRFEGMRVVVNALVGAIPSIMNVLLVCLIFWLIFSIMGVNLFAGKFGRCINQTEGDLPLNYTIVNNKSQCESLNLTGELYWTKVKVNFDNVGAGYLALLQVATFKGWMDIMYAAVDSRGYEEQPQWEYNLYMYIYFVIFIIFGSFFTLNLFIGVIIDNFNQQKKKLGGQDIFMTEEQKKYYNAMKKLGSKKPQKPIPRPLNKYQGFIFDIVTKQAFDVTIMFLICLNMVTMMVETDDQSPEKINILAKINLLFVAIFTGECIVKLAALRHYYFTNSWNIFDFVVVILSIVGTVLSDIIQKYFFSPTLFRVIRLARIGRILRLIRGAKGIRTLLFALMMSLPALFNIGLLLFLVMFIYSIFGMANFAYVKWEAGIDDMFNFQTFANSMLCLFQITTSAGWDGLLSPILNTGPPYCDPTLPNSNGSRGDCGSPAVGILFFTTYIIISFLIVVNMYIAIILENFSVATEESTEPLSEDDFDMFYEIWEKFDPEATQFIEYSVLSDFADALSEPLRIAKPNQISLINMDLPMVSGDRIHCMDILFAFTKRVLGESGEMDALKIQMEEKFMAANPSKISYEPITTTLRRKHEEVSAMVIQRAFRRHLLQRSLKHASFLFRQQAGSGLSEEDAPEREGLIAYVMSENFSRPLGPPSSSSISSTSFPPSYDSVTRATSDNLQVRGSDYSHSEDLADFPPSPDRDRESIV
// boundary case: IC50 equal to 6 µM maps to criterion not met; strictly smaller maps to criterion met

compound | discrete_label
CN1CCN(c2cccc3c2C[C@H](NC(=O)c2ccc(OCC(F)(F)F)nc2)CO3)CC1 | criterion met
Cc1nn(-c2ccccc2)nc1C(=O)N[C@@H]1COc2cccc(N3CCN(C)CC3)c2C1 | criterion met
Cc1cc(-c2cccc3c2C[C@H](NC(=O)c2ccc(OCCOCC(F)(F)F)nc2)CO3)cnc1CO | criterion met

Consider the record given below.
[ask] Decide: IC50 of CCCCOc1ccc(C(=O)N[C@@H]2COc3cccc(N4CCN(C)CC4)c3C2)cc1 strictly below 6 µM?
[reply] criterion not met

---

test: Solubility of the compound; format: physicochemical
Listed next: entries and their corresponding solubility.
// return numeric value only (unit: µM, not printed)

Example compounds with recorded solubility:
compound | value_units | solubility
Cc1nn(CC(C)C)nc1C(=O)N[C@@H]1COc2cccc(-c3cccnc3)c2C1 | µM | 393
O=C(N[C@@H]1COc2cccc(-c3ccnc(CO)c3)c2C1)c1ccc(OCC(F)(F)F)nc1 | µM | 17
COc1cnc(-c2cccc3c2C[C@H](NC(=O)c2ccc(COCC(F)(F)F)nc2)CO3)cn1 | µM | 34

[ask] Tell me its solubility given CCCCOc1ccc(C(=O)N[C@@H]2COc3cccc(N4CCN(C)CC4)c3C2)cc1 as the entry.
[reply] 1

[ask] Tell us which solubility value is on record for CN1CCN(c2cccc3c2C[C@H](NC(=O)c2ccc(OCC(F)(F)F)nc2)CO3)CC1
[reply] 82

[ask] For the compound Cc1nn(-c2ccccc2)nc1C(=O)N[C@@H]1COc2cccc(N3CCN(C)CC3)c2C1 , give its measured solubility value.
[reply] 211

---

biological target: Sodium channel protein type 9 subunit alpha (Homo sapiens, UniProt Q15858); assay: Inhibition of human NaV1.7 expressed in HEK293 cells by whole-cell voltage clamp assay
Sequence (Q15858 whole entry): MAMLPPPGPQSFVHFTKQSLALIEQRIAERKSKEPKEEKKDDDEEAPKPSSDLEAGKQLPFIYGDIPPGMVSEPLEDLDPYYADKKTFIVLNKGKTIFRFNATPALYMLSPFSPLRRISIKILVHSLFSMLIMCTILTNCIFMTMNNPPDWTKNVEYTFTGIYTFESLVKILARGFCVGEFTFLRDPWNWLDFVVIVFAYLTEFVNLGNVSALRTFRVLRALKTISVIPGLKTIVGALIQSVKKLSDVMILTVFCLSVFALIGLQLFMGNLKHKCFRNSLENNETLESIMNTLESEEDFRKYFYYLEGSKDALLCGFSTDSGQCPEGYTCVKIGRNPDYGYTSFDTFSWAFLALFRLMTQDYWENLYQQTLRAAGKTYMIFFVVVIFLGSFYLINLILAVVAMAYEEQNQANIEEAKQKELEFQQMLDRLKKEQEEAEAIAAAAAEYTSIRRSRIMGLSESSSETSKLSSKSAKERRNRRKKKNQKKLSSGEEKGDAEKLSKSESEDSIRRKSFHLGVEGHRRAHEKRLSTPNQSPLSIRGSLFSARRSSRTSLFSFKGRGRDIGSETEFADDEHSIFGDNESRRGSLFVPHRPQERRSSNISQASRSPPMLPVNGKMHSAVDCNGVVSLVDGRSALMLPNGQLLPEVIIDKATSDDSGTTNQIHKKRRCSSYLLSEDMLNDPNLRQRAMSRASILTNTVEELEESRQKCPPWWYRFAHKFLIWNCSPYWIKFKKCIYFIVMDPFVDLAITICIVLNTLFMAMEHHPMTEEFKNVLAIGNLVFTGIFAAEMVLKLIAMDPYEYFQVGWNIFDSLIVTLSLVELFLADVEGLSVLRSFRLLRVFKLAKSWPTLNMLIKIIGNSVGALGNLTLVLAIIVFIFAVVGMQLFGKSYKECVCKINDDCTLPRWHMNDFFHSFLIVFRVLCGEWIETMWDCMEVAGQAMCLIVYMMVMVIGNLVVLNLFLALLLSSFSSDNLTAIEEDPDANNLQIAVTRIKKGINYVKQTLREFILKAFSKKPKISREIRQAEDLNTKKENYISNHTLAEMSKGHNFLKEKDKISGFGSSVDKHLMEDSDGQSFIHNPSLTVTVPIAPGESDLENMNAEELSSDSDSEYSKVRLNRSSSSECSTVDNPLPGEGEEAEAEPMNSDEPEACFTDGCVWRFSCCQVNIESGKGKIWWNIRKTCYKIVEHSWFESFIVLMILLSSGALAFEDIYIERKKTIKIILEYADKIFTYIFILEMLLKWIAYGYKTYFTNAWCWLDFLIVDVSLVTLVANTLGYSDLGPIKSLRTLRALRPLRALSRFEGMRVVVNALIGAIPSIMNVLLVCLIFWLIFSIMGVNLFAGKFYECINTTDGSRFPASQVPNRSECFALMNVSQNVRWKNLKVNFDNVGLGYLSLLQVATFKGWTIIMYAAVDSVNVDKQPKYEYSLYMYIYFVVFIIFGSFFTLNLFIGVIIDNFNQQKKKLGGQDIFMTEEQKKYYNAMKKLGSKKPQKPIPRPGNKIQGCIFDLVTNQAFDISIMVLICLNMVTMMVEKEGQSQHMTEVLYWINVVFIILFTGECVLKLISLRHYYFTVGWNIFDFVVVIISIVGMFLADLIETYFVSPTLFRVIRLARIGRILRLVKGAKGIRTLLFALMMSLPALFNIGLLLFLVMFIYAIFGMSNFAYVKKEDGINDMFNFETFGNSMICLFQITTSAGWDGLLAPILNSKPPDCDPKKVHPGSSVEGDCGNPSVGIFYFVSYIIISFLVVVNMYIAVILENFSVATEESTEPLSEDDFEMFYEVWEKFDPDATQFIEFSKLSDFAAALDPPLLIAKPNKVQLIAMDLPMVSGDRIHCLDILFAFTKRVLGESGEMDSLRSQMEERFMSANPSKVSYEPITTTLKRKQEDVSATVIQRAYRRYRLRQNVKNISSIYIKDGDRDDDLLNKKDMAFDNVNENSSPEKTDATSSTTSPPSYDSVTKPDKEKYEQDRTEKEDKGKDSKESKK
assay_metric: IC50 (nM)
Use nM as the unit, but write only the number.

query_smiles | IC50 [nM]
Cc1ccc(-n2nc(C)c(C(=O)N[C@@H]3COc4cccc(N5CCN(C)CC5)c4C3)n2)c(C)c1 | 158
COc1ncc(-c2cccc3c2C[C@H](NC(=O)c2ccc(COCC(F)(F)F)nc2)CO3)cn1 | 251

Next, consider the following molecule.
[ask] Consider the molecule CCCCOc1ccc(C(=O)N[C@@H]2COc3cccc(N4CCN(C)CC4)c3C2)cc1 . State its measured IC50.
[reply] 1000

---

test system: Liver microsomes; test: Intrinsic clearance in rat liver microsomes assessed per ug of protein; format: ADME, Microsome
assay_metric: CLint

query_smiles | target_of_assay | assay_metric | data_value
COc1ncc(-c2cccc3c2C[C@H](NC(=O)c2ccc(OCCC(F)(F)F)nc2)CO3)cn1 | Liver microsomes | CLint | < 10 µL/min/mg
Cc1cnc(-c2cccc3c2C[C@H](NC(=O)c2ccc(COCC(F)(F)F)nc2)CO3)cn1 | Liver microsomes | CLint | < 10 µL/min/mg

Query compound follows.
[ask] State CLint on Liver microsomes. Entry: COc1ncc(-c2cccc3c2C[C@H](NC(=O)c2ccc(OCC(F)(F)F)nc2)CO3)cn1
[reply] < 10 µL/min/mg

---

molecular target: Voltage-gated inwardly rectifying potassium channel KCNH2 (Homo sapiens, UniProt Q12809); experiment: Inhibition of human ERG expressed in CHO cells by IonWorks HT assay
pIC50 for assorted molecules
Scale note: pIC50 = -log10(concentration in M).

Consider the following illustrative entries.
query_smiles | pIC50
CN1CCN(c2cccc3c2C[C@H](NC(=O)c2ccc(OCC(F)(F)F)nc2)CO3)CC1 | 5.10
Cc1nn(-c2ccccc2)nc1C(=O)N[C@@H]1COc2cccc(N3CCN(C)CC3)c2C1 | 5.10

# evaluate next
[ask] Supply measured pIC50 of CN1CCN(c2cccc3c2C[C@H](NC(=O)c2ccc(OC(F)(F)F)cc2)CO3)CC1 in your reply.
[reply] 5.10

---

Collected IC50 values appear next to each entry.
target: Sodium channel protein type 5 subunit alpha (Homo sapiens, UniProt Q14524); assay: Inhibition of human NaV1.5 expressed in CHO cells by IonWorks assay; assay type: cell-based
Respond numerically; units are µM and should not be typed.

Worked cases, answers included:
molecule | IC50 / µM
CN1CCN(c2cccc3c2C[C@H](NC(=O)c2ccc(OC(F)(F)F)cc2)CO3)CC1 | 2
O=C(N[C@@H]1COc2cccc(-c3cccnc3)c2C1)c1ccc(OCC(F)(F)F)nc1 | 3.16
COc1ncc(-c2cccc3c2C[C@H](NC(=O)c2ccc(COCC(F)(F)F)nc2)CO3)cn1 | 10
O=C(N[C@@H]1COc2cccc(-c3ccncc3)c2C1)c1ccc(OC(F)(F)F)cc1 | 3.98
CC(O)c1ccc(-c2cccc3c2C[C@H](NC(=O)c2ccc(OCCOCC(F)(F)F)nc2)CO3)cn1 (stereo not given in full) | 10

We next turn to a different molecule, shown below.
[ask] Identify measured IC50 associated with COc1cnc(-c2cccc3c2C[C@H](NC(=O)c2ccc(COCC(F)(F)F)nc2)CO3)cn1
[reply] 12.6

---

# reported log10(solubility); entries follow
experiment: Solubility of the compound; assay type: physicochemical
Values are log10 of solubility in µM.

compound | log10(solubility)
COCCn1nc(C)c(C(=O)N[C@@H]2COc3cccc(-c4cccnc4)c3C2)n1 | 2.60
COCCn1nc(C)c(C(=O)N[C@@H]2COc3cccc(-c4ccncc4)c3C2)n1 | 2.49
COc1ncc(-c2cccc3c2C[C@H](NC(=O)c2ccc(OCCC(F)(F)F)nc2)CO3)cn1 | 0.48
CC(O)c1ccc(-c2cccc3c2C[C@H](NC(=O)c2ccc(OCCOCC(F)(F)F)nc2)CO3)cn1 (stereo partly drawn) | 1.26
O=C(N[C@@H]1COc2cccc(-c3cccnc3)c2C1)c1ccc(OC(F)(F)F)cc1 | 0.70

Here is another compound to look at.
[ask] Supply recorded log10(solubility) for Cc1ccc(-n2nc(C)c(C(=O)N[C@@H]3COc4cccc(N5CCN(C)CC5)c4C3)n2)c(C)c1 here.
[reply] 0.60

---

molecular target: Sodium channel protein type 5 subunit alpha (Homo sapiens); test: Inhibition of human NaV1.5 expressed in CHO cells by IonWorks assay
Reported pIC50 values for a set of compounds
The scale used: pIC50 is minus the common logarithm of the concentration in molar units.

query_smiles | pIC50
Cc1ccc(-n2nc(C)c(C(=O)N[C@@H]3COc4cccc(N5CCN(C)CC5)c4C3)n2)c(C)c1 | 5.60
O=C(N[C@@H]1COc2cccc(-c3ccncc3)c2C1)c1ccc(OCC(F)(F)F)nc1 | 5.50
CN1CCN(c2cccc3c2C[C@H](NC(=O)c2ccc(OCCC(F)(F)F)nc2)CO3)CC1 | 5.30
COc1ncc(-c2cccc3c2C[C@H](NC(=O)c2ccc(OCC(F)(F)F)nc2)CO3)cn1 | 5.20

[ask] For O=C(N[C@@H]1COc2cccc(-c3ccnc(CO)c3)c2C1)c1ccc(OCC(F)(F)F)nc1 , write its pIC50.
[reply] 5.20

[ask] Identify measured pIC50 corresponding to O=C(N[C@@H]1COc2cccc(-c3cccnc3)c2C1)c1ccc(OC(F)(F)F)cc1
[reply] 5.50

[ask] Give the reported pIC50 for this compound. Cc1ncc(-c2cccc3c2C[C@H](NC(=O)c2ccc(OCC(F)(F)F)nc2)CO3)cn1
[reply] 5.30

[ask] Output pIC50 of O=C(N[C@@H]1COc2cccc(-c3ccc(CO)nc3)c2C1)c1ccc(OCC(F)(F)F)nc1
[reply] 5.20

[ask] Provide only the value of recorded pIC50 for Cc1cnc(-c2cccc3c2C[C@H](NC(=O)c2ccc(COCC(F)(F)F)nc2)CO3)cn1
[reply] 4.70

[ask] Identify pIC50 associated with the compound COc1ncc(-c2cccc3c2C[C@H](NC(=O)c2ccc(OCC(F)(F)F)nc2)CO3)cc1F
[reply] 5.40
